Data origin: patent US5418236A

Tgt: 5-HT1A receptor (Rattus norvegicus)
Construct: P2 fraction (synaptosomal membranes) from the cerebral cortex of male, Wistar rats; from tissue; host or cells: cerebral cortex of male Wistar rats, P2 fraction (synaptosomal membranes)
Sequence (P19327 1-422): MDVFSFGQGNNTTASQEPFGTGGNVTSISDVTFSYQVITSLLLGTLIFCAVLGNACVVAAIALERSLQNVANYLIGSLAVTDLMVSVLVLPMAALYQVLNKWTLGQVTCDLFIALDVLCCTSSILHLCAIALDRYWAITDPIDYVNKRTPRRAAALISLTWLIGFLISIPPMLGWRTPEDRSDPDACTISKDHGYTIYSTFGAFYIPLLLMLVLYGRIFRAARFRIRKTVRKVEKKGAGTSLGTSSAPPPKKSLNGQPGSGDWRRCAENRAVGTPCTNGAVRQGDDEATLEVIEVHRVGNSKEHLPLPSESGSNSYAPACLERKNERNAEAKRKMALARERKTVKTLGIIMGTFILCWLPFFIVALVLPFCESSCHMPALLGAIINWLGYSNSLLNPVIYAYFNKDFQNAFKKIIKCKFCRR
Protocol text: 5-HT1A assay (competitive binding, 3H-8-hydroxy-DPAT, cerebral cortex P2 fraction)
Set-up: species or system male, Wistar rats
Condition set: 1 μM; 3H-8-hydroxy-DPAT 3 nM; 20 min, 25° C.; rat cerebral cortex P2 fraction
The following compounds are listed with their measured inhibition at 1 µM values.
Give me the value, and tack the unit on after it.

Study these solved cases before continuing.
Cn1cc(C(=O)CN2CCN(c3ncccn3)CC2)cc1C(=O)c1ccc(F)cc1 [Example 6-4]    91%
Cc1c(C(=O)CN2CCN(c3ncccn3)CC2)c(C)n(C)c1C(=O)c1ccc(Cl)cc1 [Example 6-1]    24%
CC(C)Oc1ccccc1N1CCN(CC(=O)c2cc(C(=O)c3ccccc3Cl)n(C)c2)CC1 [Example 6-3]    83%
Cn1cc(C(=O)CN2CCC(c3ccccc3)CC2)cc1C(=O)c1ccc(Cl)cc1 [Example 8]    69%
Cn1cc(C(=O)CN2CCN(c3cccc4ccccc34)CC2)cc1C(=O)c1ccc(Cl)cc1 [Example 6-5]    67%

--- query ---
### Prompt Requested field: inhibition at 1 µM. Item: Cn1cc(C(=O)CN2CCN(c3ccccn3)CC2)cc1C(=O)c1ccc(Cl)cc1 [Example 6-2]
### Response 94%

* * *

The following compounds are listed with their measured Ki values.
Tgt: 5-HT1A receptor (Rattus norvegicus)
Construct: P2 fraction (synaptosomal membranes) from the cerebral cortex of male, Wistar rats; from tissue; host or cells: cerebral cortex of male Wistar rats, P2 fraction (synaptosomal membranes)
Sequence (P19327 1-422): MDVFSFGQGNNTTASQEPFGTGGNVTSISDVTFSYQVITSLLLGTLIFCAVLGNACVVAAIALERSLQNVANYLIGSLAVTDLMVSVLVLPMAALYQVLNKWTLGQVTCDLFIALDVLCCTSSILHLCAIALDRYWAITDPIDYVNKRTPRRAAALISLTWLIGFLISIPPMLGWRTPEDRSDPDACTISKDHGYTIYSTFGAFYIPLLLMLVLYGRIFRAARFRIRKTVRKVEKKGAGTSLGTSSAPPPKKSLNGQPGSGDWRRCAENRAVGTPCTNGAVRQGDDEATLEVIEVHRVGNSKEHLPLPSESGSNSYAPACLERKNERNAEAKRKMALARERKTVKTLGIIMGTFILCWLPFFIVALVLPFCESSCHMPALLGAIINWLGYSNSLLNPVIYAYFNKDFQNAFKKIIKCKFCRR
Protocol text: 5-HT1A assay (competitive binding, 3H-8-hydroxy-DPAT, cerebral cortex P2 fraction)
Parameters: species or system male, Wistar rats
Protocol: The 5-HT1A assay used a P2 fraction (synaptosomal membranes) from the cerebral cortex of male, Wistar rats. The ligand ^3 H-8-hydroxy-DPAT was used in competitive binding experiments at a concentration of 3 nM, and 1 mM serotonin as a blank determinant. Incubation was in 3 mM potassium phosphate buffer for 20 min at 25° C. The data from each assay were analyzed by calculating the percent inhibition of the binding of the tritiated ligands by given concentrations of the test compound. […]
Expressed in nM, but write only the number.

Cl.Cn1cc(C(=O)CN2CCC(O)(c3ccc(Cl)cc3)CC2)cc1C(=O)c1ccccc1Cl [Example 7, Hydrochloride]    15

--- query ---
### Prompt Requested field: Ki. Item: Cc1ccc(N(CC2=NCCN2)c2cccc(O)c2)cc1 [phentolamine, reference compound]
### Response 59
